Data provenance: paper PMC8603191

Molecular target: human A2AAR (Homo sapiens, UniProt P29274)
Construct: expressed in transfected cells; host or cells: HEK293 (membrane preparations)
Sequence (P29274 whole entry): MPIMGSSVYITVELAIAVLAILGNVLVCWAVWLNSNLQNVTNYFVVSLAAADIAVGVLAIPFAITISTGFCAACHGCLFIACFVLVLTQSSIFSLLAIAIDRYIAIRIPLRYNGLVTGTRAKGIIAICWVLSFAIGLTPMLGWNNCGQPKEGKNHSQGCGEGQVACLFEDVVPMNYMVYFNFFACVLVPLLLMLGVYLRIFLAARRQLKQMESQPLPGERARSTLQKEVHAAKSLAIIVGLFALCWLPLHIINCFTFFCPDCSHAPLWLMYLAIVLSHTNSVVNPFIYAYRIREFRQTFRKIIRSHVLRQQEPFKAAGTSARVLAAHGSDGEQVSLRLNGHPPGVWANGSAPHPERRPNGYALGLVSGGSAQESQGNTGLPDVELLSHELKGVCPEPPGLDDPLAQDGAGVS
Test: Radioligand binding assay, displacement of [3H]ZM241385
Conditions: reference compound 5; based on Table S3
experimental.endpoint: ΔΔG Experimental A2AAR

IN: Which ΔΔG Experimental A2AAR is reported with human A2AAR (Homo sapiens, UniProt P29274) for this entry: Cc1ccc2sc(NC(=O)C(C)(C)C)nc2c1 ?
OUT: 0.0 ± 0.5 kcal/mol
